systemTested: T1, AAV5 (adeno-associated virus serotype 5)
T1 construct: also called adeno-associated virus serotype 5
protocolText: SPR, AAV on CM5 chip;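 also: surface plasmon resonance with AAV amine-coupled to the chip as ligand, nanobodies injected as analyte over a concentration series, rate constants and affinity fitted from binding curves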
observedProperty: Kd (nM)
The answer is to be given in nM; state only the numeric part.

INSERT INTO measurements (binder, observedresult) VALUES
  ('A4-110 (VHH) VHH: VQLQESGGGLVQPGGSLRLSCFASGTNFSINVVGWYRQAPGKQRELVATITRGGSTNYAESVKGRFTISRDNAKNTVYLQMNNLRPEDTAVYYCHLDEVRDSSWTTSNLWGQGTQVTVSS', 37.8);

Problem: Can you share its Kd? I mean this binder: A4-105 (VHH) VHH: VQLQESGGGLVQPGGSLRLSCAASGSIFSLNAMGWYRQAPGKQRELVATITSGGSTNYADSVKGRFTISRDNAKNTAYLQMNNLQPEDTAVYYCHVDEVRESIWTTSNLWGQGTQVTVSS
Result: 14
